Target under test: Protein Rev (Human immunodeficiency virus type 1 group M subtype B (isolate WMJ22))
Test details: HIV-1 Rev-RRE binding inhibitors, retest, confirmation, biochemical, FRET, acceptor and relative FRET calls (AID 837);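 also: relative FRET combines rise in Cy5 acceptor with fall in fluorescein donor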
Test parameters: Fl-Rev peptide / Cy5-RRE RNA FRET, 1536-well; at 8 µM
Calls of active or inactive are those of the source.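 The calls were made as follows: active = relative FRET score above 0.01, or acceptor fluorescence over 30% below the sample-well median; inactive = the rest.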
Possible outcomes: active, inactive

[[record]]
compound = "C1=C2C[N+]3(CCCC3)CC2Cc2ccc3ccccc3c21 (stereo not given)"
target_under_test = "Protein Rev (Human immunodeficiency virus type 1 group M subtype B (isolate WMJ22))"
discrete_label = "inactive"

[[record]]
compound = "CCCCN1C(=O)Cc2c1nc(N)c1c(N)nc(N(CCC)CCC)c(C#N)c21"
target_under_test = "Protein Rev (Human immunodeficiency virus type 1 group M subtype B (isolate WMJ22))"
discrete_label = "inactive"

[[record]]
compound = "CCCCN1CCc2c1nc1ccc(Br)cc1c2N"
target_under_test = "Protein Rev (Human immunodeficiency virus type 1 group M subtype B (isolate WMJ22))"
discrete_label = "inactive"

[[record]]
compound = "CCN1C2=NCCCN2c2cc(C)c(C)cc21"
target_under_test = "Protein Rev (Human immunodeficiency virus type 1 group M subtype B (isolate WMJ22))"
discrete_label = "inactive"

[[record]]
compound = "CC(C)OC(=O)c1c2nc3ccccc3nc2n2c1[nH]c(=O)c1ccccc12"
target_under_test = "Protein Rev (Human immunodeficiency virus type 1 group M subtype B (isolate WMJ22))"
discrete_label = "inactive"

[[record]]
compound = "Cc1ccc(C2C3=C(NCCN=C3c3ccccc3)C(=O)N2c2ccccc2)cc1 (stereo not given)"
target_under_test = "Protein Rev (Human immunodeficiency virus type 1 group M subtype B (isolate WMJ22))"
discrete_label = "inactive"

[[record]]
compound = "Cc1ccc(C(=O)/C=C/c2ccccc2)o1"
target_under_test = "Protein Rev (Human immunodeficiency virus type 1 group M subtype B (isolate WMJ22))"
discrete_label = "inactive"

[[record]]
compound = "CCOC(=O)c1cnc(SC)nc1Sc1ccccc1Cl"
target_under_test = "Protein Rev (Human immunodeficiency virus type 1 group M subtype B (isolate WMJ22))"
discrete_label = "inactive"

[[record]]
compound = "COc1ccc(NC(=O)Nc2ccc(N(C)C)cc2)cc1"
target_under_test = "Protein Rev (Human immunodeficiency virus type 1 group M subtype B (isolate WMJ22))"
discrete_label = "inactive"

[[record]]
compound = "Cc1cc(C)cc(NC2=NC3(CCCCC3)N=C(N)N2)c1"
target_under_test = "Protein Rev (Human immunodeficiency virus type 1 group M subtype B (isolate WMJ22))"
discrete_label = "inactive"

[[record]]
compound = "Cc1ccc(C(=O)NNC(=O)CSc2nnc3c(n2)[nH]c2ccc(F)cc23)cc1"
target_under_test = "Protein Rev (Human immunodeficiency virus type 1 group M subtype B (isolate WMJ22))"
discrete_label = "active"

[[record]]
compound = "Cc1cc(Cl)c(OCCCNCc2ccccc2)c(Br)c1"
target_under_test = "Protein Rev (Human immunodeficiency virus type 1 group M subtype B (isolate WMJ22))"
discrete_label = "inactive"

[[record]]
compound = "C=CCn1c(=N)n(CC(O)COc2ccc(OC)cc2)c2ccccc21 (stereo not given)"
target_under_test = "Protein Rev (Human immunodeficiency virus type 1 group M subtype B (isolate WMJ22))"
discrete_label = "inactive"

[[record]]
compound = "c1coc(CNc2c3c(nc4ccccc24)CCC3)c1"
target_under_test = "Protein Rev (Human immunodeficiency virus type 1 group M subtype B (isolate WMJ22))"
discrete_label = "inactive"

[[record]]
compound = "Cc1nc(Nc2ccncc2)c2oc3ccccc3c2n1"
target_under_test = "Protein Rev (Human immunodeficiency virus type 1 group M subtype B (isolate WMJ22))"
discrete_label = "active"

[[record]]
compound = "CCCCOC(=O)Cn1c(=N)n(CCC)c2ccccc21"
target_under_test = "Protein Rev (Human immunodeficiency virus type 1 group M subtype B (isolate WMJ22))"
discrete_label = "inactive"

[[record]]
compound = "Nc1nc(Nc2ccccc2)nc2ccccc12"
target_under_test = "Protein Rev (Human immunodeficiency virus type 1 group M subtype B (isolate WMJ22))"
discrete_label = "inactive"

[[record]]
compound = "CCCCOc1ccc(NC2=NC3(CCCCC3)N=C(N)N2)cc1"
target_under_test = "Protein Rev (Human immunodeficiency virus type 1 group M subtype B (isolate WMJ22))"
discrete_label = "inactive"

[[record]]
compound = "O=C(N/N=C/c1cccc(F)c1)c1cc(-c2ccco2)nc2ccccc12"
target_under_test = "Protein Rev (Human immunodeficiency virus type 1 group M subtype B (isolate WMJ22))"
discrete_label = "active"

[[record]]
compound = "C=CCn1c(=O)c(C(=O)NCCNCC)c(O)c2ccccc21"
target_under_test = "Protein Rev (Human immunodeficiency virus type 1 group M subtype B (isolate WMJ22))"
discrete_label = "inactive"

[[record]]
compound = "CC(C)(C)CC(C)(C)NCC(O)COc1c(F)cc(Br)cc1F (stereo not given)"
target_under_test = "Protein Rev (Human immunodeficiency virus type 1 group M subtype B (isolate WMJ22))"
discrete_label = "inactive"

[[record]]
compound = "CCOc1cc(-c2ccc(N)c(OCC)c2)ccc1N"
target_under_test = "Protein Rev (Human immunodeficiency virus type 1 group M subtype B (isolate WMJ22))"
discrete_label = "active"

[[record]]
compound = "Cc1ccc(C)n1-c1sccc1C(=O)O"
target_under_test = "Protein Rev (Human immunodeficiency virus type 1 group M subtype B (isolate WMJ22))"
discrete_label = "inactive"

[[record]]
compound = "C=CCNCCCCOc1c(Cl)cc(C)cc1Br"
target_under_test = "Protein Rev (Human immunodeficiency virus type 1 group M subtype B (isolate WMJ22))"
discrete_label = "inactive"

[[record]]
compound = "NCCCC(=O)N1c2ccccc2Sc2ccccc21"
target_under_test = "Protein Rev (Human immunodeficiency virus type 1 group M subtype B (isolate WMJ22))"
discrete_label = "active"

